Biological target: Nluc-H1R (Homo sapiens, UniProt P35367)
Sequence (P35367 whole entry): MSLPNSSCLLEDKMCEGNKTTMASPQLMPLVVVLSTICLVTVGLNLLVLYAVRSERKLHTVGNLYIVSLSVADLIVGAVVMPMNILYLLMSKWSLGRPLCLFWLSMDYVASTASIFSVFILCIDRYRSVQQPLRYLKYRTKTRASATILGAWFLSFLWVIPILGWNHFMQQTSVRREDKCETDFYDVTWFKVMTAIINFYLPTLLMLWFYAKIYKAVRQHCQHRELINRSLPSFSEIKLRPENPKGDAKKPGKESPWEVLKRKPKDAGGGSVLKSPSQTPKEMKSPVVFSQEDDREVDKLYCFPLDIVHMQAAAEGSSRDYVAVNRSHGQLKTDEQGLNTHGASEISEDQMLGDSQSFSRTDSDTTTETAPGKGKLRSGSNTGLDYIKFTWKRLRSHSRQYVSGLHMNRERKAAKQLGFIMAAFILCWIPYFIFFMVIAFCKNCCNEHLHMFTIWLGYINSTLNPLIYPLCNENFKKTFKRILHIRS
Assay: NanoBRET competition binding assay (displacement of 1) on Nluc-H1R expressing HEK293T cells
Details: displacement of 1 (25 nM, KD = 8 nM), whole HEK293T cells, Cheng–Prusoff
Square brackets hold non-standard residues; d marks the D form. Peptide text beside a SMILES is read from it. * marks the point of attachment. Propanoyl(3-Pip(4-O-2-BnPh)) = O=C(CCN1CCC(Oc2ccccc2Cc2ccccc2)CC1)*
Each record is given yes (1) if its reported Ki is strictly below 600 nM. Records at or above 600 nM are given no (0).

{"compound": "CC(C)[C@H](NC(=O)CCN1CCC(Oc2ccccc2Cc2ccccc2)CC1)C(=O)N[C@@H](Cc1ccc(O)cc1)C(=O)N[C@@H](C)C(=O)N[C@H](Cc1ccccc1)C(N)=O [Compound 9d] ({Propanoyl(3-Pip(4-O-2-BnPh))}-VYA[dF]-NH2)", "label.class": "yes (1)"}
{"compound": "CC(C)[C@H](NC(=O)CCN1CCC(Oc2ccccc2Cc2ccccc2)CC1)C(=O)N[C@H](C(=O)N[C@@H](C)C(=O)N[C@H](Cc1ccccc1)C(N)=O)C(C)C [Compound 9b] ({Propanoyl(3-Pip(4-O-2-BnPh))}-VVA[dF]-NH2)", "label.class": "yes (1)"}
{"compound": "CC(C)[C@H](NC(=O)CCN1CCC(Oc2ccccc2Cc2ccccc2)CC1)C(=O)N[C@@H](CC(=O)O)C(=O)N[C@@H](C)C(=O)N[C@H](Cc1ccccc1)C(N)=O [Compound 9i] ({Propanoyl(3-Pip(4-O-2-BnPh))}-VDA[dF]-NH2)", "label.class": "yes (1)"}

Exam item: Quick check: does CC(C)[C@H](NC(=O)CCN1CCC(Oc2ccccc2Cc2ccccc2)CC1)C(=O)N[C@@H](Cc1cnc[nH]1)C(=O)N[C@@H](C)C(=O)N[C@H](Cc1ccccc1)C(N)=O [Compound 9g] ({Propanoyl(3-Pip(4-O-2-BnPh))}-VHA[dF]-NH2) have Ki under 600 nM?
Marked response: no (0)

Exam item: Same question, CC(C)[C@H](NC(=O)CCN1CCC(Oc2ccccc2Cc2ccccc2)CC1)C(=O)N[C@@H](CC(N)=O)C(=O)N[C@@H](C)C(=O)N[C@H](Cc1ccccc1)C(N)=O [Compound 9f] ({Propanoyl(3-Pip(4-O-2-BnPh))}-VNA[dF]-NH2) this time
Marked response: no (0)

Exam item: Same question, C[C@H](NC(=O)[C@H](C)NC(=O)[C@H](Cc1cnc[nH]1)NC(=O)CCN1CCC(Oc2ccccc2Cc2ccccc2)CC1)C(=O)N[C@H](Cc1ccccc1)C(N)=O [Compound 8h] ({Propanoyl(3-Pip(4-O-2-BnPh))}-HAA[dF]-NH2) this time
Marked response: no (0)
